The measured values listed here are drawn from patent US20080058263A1.

target: T1, VEGFR-2-Fc (UniProt P35968 20-322); test: receptor-Fc IP
T1 construct: domain: first 3 Ig domains; conditioned supernatant of 293T cells; also called VEGFR-2-Fc fusion protein; not shown: Fc fragment of the pIg vector
T1 sequence (P35968 20-322): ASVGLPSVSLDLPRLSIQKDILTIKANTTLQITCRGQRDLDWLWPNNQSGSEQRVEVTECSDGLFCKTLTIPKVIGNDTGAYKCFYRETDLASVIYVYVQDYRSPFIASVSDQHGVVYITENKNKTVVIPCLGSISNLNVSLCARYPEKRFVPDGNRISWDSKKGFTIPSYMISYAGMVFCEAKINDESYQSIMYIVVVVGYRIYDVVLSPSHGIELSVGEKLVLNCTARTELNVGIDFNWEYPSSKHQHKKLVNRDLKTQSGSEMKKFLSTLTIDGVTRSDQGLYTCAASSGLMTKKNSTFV
readout: binding result

Solved entries:
| binder | binding result |
| --- | --- |
| 33-4 (ligand) GQNHHEVVKSIDNEWRKTQCMPIETLVDIFQEYPDEIEYIFKPPCVSVYRCGGCCNSEGLQCMNTSTSYLSKTLFEIKPHQGQHIGEMSFLQHNKCECRPKKD | no binding |
| 33-2 (ligand) GQNHHEVVKSIDNEWRKTQCMPIETLVDIFQEYPDEIEYIFKPPCVSVYRCGGCCNDEGLECMNTSTSYLSKTLFEIKPHQGQHIGEMSFLQHNKCECRPKKD | no binding |
| 22-3 (ligand) AHYNTEILKSIDNEWRKTQCMPREVCIDVGKEFGVATNTFFKPPCVSVYRCGGCCNSEGLQCVPTEESNITMQIMRIKPHQGQHIGEMSFLQHNKCECRPKKD | no binding |
| 72-10 (ligand) GQNHHEVVKSIDNEWRKTQCMPREVCIDVGKEFGVATNTFFKPPCVSVYRCGGCCNDEGLECMNTSTSYLSKTLFEITVPLSQGPKPVTISFLQHNKCECRPKKD | binds |
| 44-10 (ligand) AHYNTEILKFMDVYQRSYCHPREVCIDVGKEFGVATNTFFKPSCVPLMRCGGCCNDEGLECMNTSTSYLSKTLFEITVPLSQGPKPVTISFLQHNKCECRPKKD | no binding |
| 62-7 (ligand) GQNHHEVVKFMDVYQRSYCHPREVCIDVGKEFGVATNTFFKPPCVSVYRCGGCCNSEGLQCVPTEESNITMQIMRIKPHQGQHIGEMSFANHTSCRCMSKLD | no binding |
| 42-6 (ligand) AHYNTEILKFMDVYQRSYCHPREVCIDVGKEFGVATNTFFKPPCVSVYRCGGCCNDEGLECMNTSTSYLSKTLFEIKPHQGQHIGEMSFANHTSCRCMSKLD | no binding |
| 22-6 (ligand) AHYNTEILKSIDNEWRKTQCMPREVCIDVGKEFGVATNTFFKPPCVSVYRCGGCCNDEGLECMNTSTSYLSKTLFEIKPHQGQHIGEMSFANHTSCRCMSKLD | binds |

Input 14-13 (ligand) GQNHHEVVKFMDVYQRSYCHPIETLVDIFQEFGVATNTFFKPSCVPLMRCGGCCNDEGLECVPTEESNITMQIMRITVPLSQGPKPVTISFANHTSCRCMSKLD . Output binding result: no binding

Input 54-1 (ligand) AHYNTEILKSIDNEWRKTQCMPIETLVDIFQEFGVATNTFFKPSCVPLMRCGGCCNDEGLECVPTEESNITMQIMRIKPHQGQHIGEMSFLQHNKCECRPKKD . Output binding result: no binding

Input 24-12 (ligand) AHYNTEILKSIDNEWRKTQCMPREVCIDVGKEFGVATNTFFKPSCVPLMRCGGCCNSEGLQCMNTSTSYLSKTLFEITVPLSQGPKPVTISFLQHNKCECRPKKD . Output binding result: no binding
